Test: Novel Modifiers of Survival Motor Neuron (SMN) Protein: Gene Identification via Genome-wide siRNA Screen;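 further: luminescence tracks full-length SMN protein made from the SMN2 reporter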
Conditions: HEK293T SMN2-luciferase reporter, siRNA knockdown, 72 h; actives lie on both sides
Out of some 31,000 sequences screened, about 1,400 (4.5%) were called active.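 How the source made its calls: active means median seed-adjusted z-score above 1 or below -1; inactive means the rest.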 This is one part of a sample in which actives are shown more often than they occur.
// classify into TRUE = active, FALSE = inactive

Query block: For GGAUGCACUUUGUCCGAAATT against SPATA5 , which call appears in the assay record?
Result block: TRUE

Query block: For GAACUGAUAUCUGAAGAGATT against MLPH , which call appears in the assay record?
Result block: TRUE

Query block: For CAAGUUCCUUAACAAGGAATT against EIF2B4 , which call appears in the assay record?
Result block: FALSE

Query block: For GAUUACAACCUGUAUCGAATT against THOC1 , which call appears in the assay record?
Result block: TRUE

Query block: For CCUAUUCACUUUACACUGUTT against AKR7A2 , which call appears in the assay record?
Result block: FALSE

Query block: For GAUCCAUAGUACACGAAUATT against ADAM7 , which call appears in the assay record?
Result block: FALSE

Query block: For GCACUGGACCAAUACAAGUTT against GPR84 , which call appears in the assay record?
Result block: FALSE

Query block: For CACUAUUCCCAGAUCUUUATT against SMAD5 , which call appears in the assay record?
Result block: FALSE

Query block: For CAUUGUGAGCUAUAACGAUTT against CDH10 , which call appears in the assay record?
Result block: FALSE

Query block: For ACAUCCGAGUUUAUCCUGATT against SFRS9 , which call appears in the assay record?
Result block: FALSE

Query block: For GAGCAACAGUCACCAGAUATT against MAT2A , which call appears in the assay record?
Result block: TRUE

Query block: For GCUGGAAAAGGUUAACGAATT against PKNOX1 , which call appears in the assay record?
Result block: FALSE

###

Experiment: Novel Modifiers of Survival Motor Neuron (SMN) Protein: Gene Identification via Genome-wide siRNA Screen;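 further: luminescence tracks full-length SMN protein made from the SMN2 reporter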
Settings: HEK293T SMN2-luciferase reporter, siRNA knockdown, 72 h; actives lie on both sides
Hit rate of the full screen: of about 31,000 sequences, about 1,400 (4.5%) were called active. Many of the other results were omitted from the sample, so actives are more common in it than they were.
Short version: median seed-adjusted z-score at least -0.03 is Criterion met, less is Criterion not met.

Query block: Form field: median seed-adjusted z-score at least -0.03? Entry: GCAUGGAGCAGAUCGUGUUTT against ITPR3
Result block: Criterion not met

Query block: Form field: median seed-adjusted z-score at least -0.03? Entry: GCAACUUCUUAAGACUAAATT against DBR1
Result block: Criterion met

Query block: Form field: median seed-adjusted z-score at least -0.03? Entry: CAUUCUAUGGGAUACCCUATT against SYT4
Result block: Criterion not met

Query block: Form field: median seed-adjusted z-score at least -0.03? Entry: CUGUUUGACUUCAUCGAGATT against COPG
Result block: Criterion met

Query block: Form field: median seed-adjusted z-score at least -0.03? Entry: CUAUAUCUCCAACACUUUUTT against SMARCD3
Result block: Criterion met
